Biological target: Retinaldehyde dehydrogenase 3 (Homo sapiens) (UniProt P47895)
Assay: qHTS for Inhibitors of the Aldehyde Dehydrogenase Family (ALDH1A3) Primary screen (AID 2061315)
Details: ALDH inhibition qHTS; series mostly up to 56 µM
Results filed as inconclusive are left out. The source made the active and inactive calls. Calls follow the shape of the dose curve; as a rule, active = well fitted inhibition curve with a large enough effect; inconclusive = small, poorly fitted or top-dose-only effect; inactive = no such curve, though single readings can be large or run the other way.
recorded.metric: activity change, negative = inhibition

Problem: Tell me activity change, negative = inhibition reported for CC1(C)CC[C@]2(C(=O)O[C@@H]3O[C@H](CO)[C@@H](O)[C@H](O)[C@H]3O)CC[C@]3(C)C(=CCC4[C@@]5(C)CC[C@H](O[C@H]6O[C@H](CO)[C@@H](O)[C@H](O[C@@H]7O[C@H](CO)[C@@H](O)[C@H](O)[C@H]7O)[C@H]6O)C(C)(C)C5CC[C@]43C)[C@@H]2C1 (stereo partly drawn)
Solution: inactive

Problem: Tell me activity change, negative = inhibition reported for NC(=O)N1CCN(c2nc(-c3ccc(Br)cc3)cs2)CC1
Solution: inactive

Problem: Tell me activity change, negative = inhibition reported for COc1ccc(N(C)c2nc(C)nc3ccccc23)cc1
Solution: inactive
